Test: Ratio of drug level in C57bl/6j mouse brain to plasma at 20 mg/kg, po
Assay type: ADME, organism-based
Settings: read-out: BPR
Rule: Kp below 0.1 gives YES, anything at or above gives NO.

Structure string: C[C@@H](NC(=O)c1nn(-c2ccc(Cl)cc2Cl)c2c1CCC/C2=C\c1ccc(Cl)s1)c1ccccn1
Group: YES
//
Structure string: C[C@@H](NC(=O)c1nn(-c2ccc(Cl)cc2)c2c1CCC/C2=C\c1ccc(Cl)cn1)c1ccccn1
Group: NO
//
Structure string: C[C@@H](NC(=O)c1nn(-c2ccc(Cl)c(Cl)c2)c2c1CCC/C2=C\c1ccc(Cl)s1)c1ccccn1
Group: YES
//
Structure string: O=C(NC1(c2ccccn2)CC1)c1nn(-c2ccc(Cl)cc2)c2c1CCC/C2=C\c1ccc(Cl)cc1
Group: NO
//
Structure string: C[C@@H](NC(=O)c1nn(-c2ccc(Cl)cc2)c2c1CCCC/C2=C\c1ccc(F)cc1)c1ccccn1
Group: NO
//
Structure string: C[C@@H](NC(=O)c1nn(-c2ccc(C(F)(F)F)cc2Cl)c2c1CCCC/C2=C\c1ccc(Cl)s1)c1ccccn1
Group: NO
//
Structure string: C[C@@H](NC(=O)c1nn(-c2ccc(Cl)cc2Cl)c2c1CCCC/C2=C\c1ccc(Cl)cn1)c1ccccn1
Group: NO
//
Structure string: O=C(NC1CCN(c2ccccn2)CC1)c1nn(-c2ccc(Cl)cc2Cl)c2c1CCC/C2=C\c1ccc(F)cc1
Group: YES
//
Structure string: O=C(NC1CCN(c2ccccn2)CC1)c1nn(-c2ccc(Cl)cc2Cl)c2c1CCC/C2=C\c1ccc(Cl)cc1
Group: YES
//
Structure string: C[C@@H](NC(=O)c1nn(-c2ccc(Cl)c(Cl)c2)c2c1CCCC/C2=C\c1ccc(F)cc1)c1ccccn1
Group: YES
//
Structure string: C[C@@H](NC(=O)c1nn(-c2ccc(Cl)cc2Cl)c2c1CCC/C2=C\c1ccc(F)cc1)c1ccccn1
Group: NO
//
Structure string: O=C(NC1(c2ccccn2)CC1)c1nn(-c2ccc(C(F)(F)F)cc2Cl)c2c1CCC/C2=C\c1ccc(Cl)s1
Group: NO
//
Structure string: C[C@@H](NC(=O)c1nn(-c2ccc(Cl)c(Cl)c2)c2c1CCCC/C2=C\c1ccc(Cl)cc1)c1ccccn1
Group: YES
//
Structure string: C[C@@H](NC(=O)c1nn(-c2ccc(Cl)cc2)c2c1CCC/C2=C\c1ccc(Cl)cc1)c1ccccn1
Group: NO
//
Structure string: C[C@@H](NC(=O)c1nn(-c2ccc(Cl)cc2Cl)c2c1CCC/C2=C\c1ccc(Cl)cc1)c1ccccn1
Group: NO
//
Structure string: O=C(NC1CCN(c2ccccn2)CC1)c1nn(-c2ccc(Cl)cc2Cl)c2c1CCCC/C2=C\c1ccc(F)cc1
Group: YES

* * *

Test: Drug uptake in C57bl/6j mouse plasma at 20 mg/kg, po measured at 2 hrs post dose by LC/MS analysis
Type: ADME, organism-based
Measurement type: concentration at 2 h (nM)

Structure string: C[C@@H](NC(=O)c1nn(-c2ccc(Cl)cc2)c2c1CCC/C2=C\c1ccc(Cl)cc1)c1ccccn1
Measurement type: concentration at 2 h
Endpoint value: 3720
//
Structure string: C[C@@H](NC(=O)c1nn(-c2ccc(Cl)cc2Cl)c2c1CCC/C2=C\c1ccc(Cl)s1)c1ccccn1
Measurement type: concentration at 2 h
Endpoint value: 2960
//
Structure string: C[C@@H](NC(=O)c1nn(-c2ccc(Cl)cc2Cl)c2c1CCCC/C2=C\c1ccc(Cl)cc1)c1ccccn1
Measurement type: concentration at 2 h
Endpoint value: 830
//
Structure string: C[C@@H](NC(=O)c1nn(-c2ccc(Cl)cc2)c2c1CCCC/C2=C\c1ccc(F)cc1)c1ccccn1
Measurement type: concentration at 2 h
Endpoint value: 2470
//
Structure string: C[C@@H](NC(=O)c1nn(-c2ccc(Cl)cc2Cl)c2c1CCCC/C2=C\c1ccc(Cl)s1)c1ccccn1
Measurement type: concentration at 2 h
Endpoint value: 3630
//
Structure string: O=C(NC1CCN(c2ccccn2)CC1)c1nn(-c2ccc(Cl)cc2Cl)c2c1CCCC/C2=C\c1ccc(F)cc1
Measurement type: concentration at 2 h
Endpoint value: 2030
//
Structure string: C[C@@H](NC(=O)c1nn(-c2ccc(Cl)cc2Cl)c2c1CCCC/C2=C\c1ccc(F)cc1)c1ccccc1
Measurement type: concentration at 2 h
Endpoint value: 1290
//
Structure string: C[C@@H](NC(=O)c1nn(-c2ccc(Cl)c(Cl)c2)c2c1CCCC/C2=C\c1ccc(Cl)cc1)c1ccccn1
Measurement type: concentration at 2 h
Endpoint value: 2400
